System: Nucleic Acid
// label = y if ΔTm is not less than 8, otherwise n

Example results:
• CC(=N)Nc1ccc(-c2ccc(-c3ccc(NC(C)=N)cc3)o2)cc1 = n
• Cl.Cl.N=C(N)Nc1ccc(-c2ccc(-c3ccc(NC(=N)N)cc3Cl)o2)c(Cl)c1 = n
• Cc1cc(NC(=N)c2ccc3ccccc3n2)ccc1-c1ccc(-c2ccc(NC(=N)c3ccc4ccccc4n3)cc2C)o1 = n
• Cl.Cl.N=C(N)Nc1ccc(-c2ccc(-c3ccc(NC(=N)N)cc3)o2)cc1 = y
• Cl.Cl.N=C(Nc1ccc(-c2ccc(-c3ccc(NC(=N)c4ccccc4)cc3)o2)cc1)c1ccccc1 = y

Identify whether the reported ΔTm of the following molecule is 8 or greater: Cc1cc(NC(=N)N)ccc1-c1ccc(-c2ccc(NC(=N)N)cc2C)o1.Cl.Cl
n

Reported ΔTm at or above 8? Cc1ccc(C(=N)Nc2ccc(-c3ccc(-c4ccc(NC(=N)c5ccc(C)cn5)cc4C)o3)c(C)c2)nc1
y

API: above_or_equal(metric=ΔTm, cutoff=8) for item N=C(Nc1ccc(-c2ccc(-c3ccc(NC(=N)c4ccccn4)cc3Cl)o2)c(Cl)c1)c1ccccn1
n

* * *

ΔTm: recorded values
System: Nucleic Acid
Reply with the value as a number alone.

// below: answered compounds
- N=C(N)c1ccc(-c2ccc(-c3ccc(C(=N)N)cc3)o2)cc1 [FURAMIDINE]: 25
- Cc1ccc(C(=N)Nc2ccc(-c3ccc(-c4ccc(NC(=N)c5ccc(C)cn5)cc4C)o3)c(C)c2)nc1: 24.3
- Cl.Cl.N=C(N)Nc1ccc(-c2ccc(-c3ccc(NC(=N)N)cc3C(F)(F)F)o2)c(C(F)(F)F)c1: 5.9
- Cl.Cl.N=C(N)Nc1ccc(-c2ccc(-c3ccc(NC(=N)N)cc3)o2)cc1: 21.6
- Cc1cc(NC(=N)N)ccc1-c1ccc(-c2ccc(NC(=N)N)cc2C)o1.Cl.Cl: 17.8

Fill in the recorded ΔTm for this compound, with Nucleic Acid as test system: COc1cc(NC(=N)c2ccccn2)ccc1-c1ccc(-c2ccc(NC(=N)c3ccccn3)cc2OC)o1
19

Provide value of ΔTm for this record tested with Nucleic Acid: Cl.Cl.N=C(N)Nc1ccc(-c2ccc(-c3ccc(NC(=N)N)cc3Cl)o2)c(Cl)c1
26.1

Reported ΔTm for Nucleic Acid, given Cl.Cl.N=C(Nc1ccc(-c2ccc(-c3ccc(NC(=N)c4ccccc4)cc3)o2)cc1)c1ccccc1 ?
28.6

Form: Entry = Cc1cc(NC(=N)N)cc(C)c1-c1ccc(-c2c(C)cc(NC(=N)N)cc2C)o1 | System = Nucleic Acid | ΔTm = ____
2.7

* * *

Test system: Aspergillus fumigatus
Assay: Antimicrobial activity against Aspergillus fumigatus (MIC)
Format: functional
The reader will find reported MIC values listed item by item below.
Output spec: scalar in µg/mL, unitless text.

Sample records with MIC:
* Cc1cc(NC(=N)c2ccc3ccccc3n2)ccc1-c1ccc(-c2ccc(NC(=N)c3ccc4ccccc4n3)cc2C)o1 | 100
* Cl.Cl.N=C(N)Nc1ccc(-c2ccc(-c3ccc(NC(=N)N)cc3C(F)(F)F)o2)c(C(F)(F)F)c1 | 100
* Cl.Cl.N=C(N)Nc1ccc(-c2ccc(-c3ccc(NC(=N)N)cc3Cl)o2)c(Cl)c1 | 100
* CC(=N)Nc1ccc(-c2ccc(-c3ccc(NC(C)=N)cc3)o2)cc1 | 100
* Cc1cc(NC(=N)c2ccccn2)cc(C)c1-c1ccc(-c2c(C)cc(NC(=N)c3ccccn3)cc2C)o1 | 10
* Cc1ccc(C(=N)Nc2ccc(-c3ccc(-c4ccc(NC(=N)c5ccc(C)cn5)cc4C)o3)c(C)c2)nc1 | 10

API: value(readout= MIC, system= Aspergillus fumigatus, query= Cc1cc(NC(=N)c2ccccn2)ccc1-c1ccc(-c2ccc(NC(=N)c3ccccn3)cc2C)o1 )
10

MIC of Cc1cc(NC(=N)N)ccc1-c1ccc(-c2ccc(NC(=N)N)cc2C)o1.Cl.Cl on Aspergillus fumigatus?
33.4

Entry N=C(Nc1ccc(-c2ccc(-c3ccc(NC(=N)C4CCCCC4)cc3)o2)cc1)C1CCCCC1 , system Aspergillus fumigatus: what MIC was measured?
100

Request: MIC, test system Aspergillus fumigatus, entry COc1cc(NC(=N)N)ccc1-c1ccc(-c2ccc(NC(=N)N)cc2OC)o1.Cl.Cl
100

* * *

Test system: Candida albicans
Test: In vitro minimum fungicidal concentration against Candida albicans.
Format: functional
Threshold 20 µg/mL. MFC below it: True. MFC at it or above: False.

Example results:
- Cl.Cl.N=C(N)Nc1ccc(-c2ccc(-c3ccc(NC(=N)N)cc3C(F)(F)F)o2)c(C(F)(F)F)c1: True
- OC(Cn1cncn1)(Cn1cncn1)c1ccc(F)cc1F [FLUCONAZOLE]: False
- Cl.Cl.N=C(N)Nc1ccc(-c2ccc(-c3ccc(NC(=N)N)cc3)o2)cc1: False
- COc1cc(NC(=N)c2ccccn2)ccc1-c1ccc(-c2ccc(NC(=N)c3ccccn3)cc2OC)o1: True
- N=C(Nc1ccc(-c2ccc(-c3ccc(NC(=N)c4ccccn4)cc3Cl)o2)c(Cl)c1)c1ccccn1: False

Note: attention shifts to another entry.
Could you please tell me whether MFC recorded for COc1cc(NC(=N)N)ccc1-c1ccc(-c2ccc(NC(=N)N)cc2OC)o1.Cl.Cl is less than 20 µg/mL?
False

* * *

A set of molecules tested on Nucleic Acid, with measured ΔTm:
Quick one: just the number, no unit, thanks!

Consider the following illustrative entries.
- CC(=N)Nc1ccc(-c2ccc(-c3ccc(NC(C)=N)cc3)o2)cc1: 15.9
- N=C(Nc1ccc(-c2ccc(-c3ccc(NC(=N)C4CCCCC4)cc3)o2)cc1)C1CCCCC1: 26.7
- Cc1cc(NC(=N)c2ccccn2)cc(C)c1-c1ccc(-c2c(C)cc(NC(=N)c3ccccn3)cc2C)o1: 5.7
- Cc1cc(NC(=N)c2ccccn2)ccc1-c1ccc(-c2ccc(NC(=N)c3ccccn3)cc2C)o1: 22.6
- COc1cc(NC(=N)N)ccc1-c1ccc(-c2ccc(NC(=N)N)cc2OC)o1.Cl.Cl: 15.2
- N=C(Nc1ccc(-c2ccc(-c3ccc(NC(=N)c4ccccn4)cc3)o2)cc1)c1ccccn1: 19.6
- Cc1cc(NC(=N)c2ccccc2)ccc1-c1ccc(-c2ccc(NC(=N)c3ccccc3)cc2C)o1: 24.9

Then this molecule:
Lab note: need ΔTm for N=C(Nc1ccc(-c2ccc(-c3ccc(NC(=N)c4ccccn4)cc3Cl)o2)c(Cl)c1)c1ccccn1 on Nucleic Acid, anyone have it?
5.2

* * *

Test system: Candida albicans
Test: In vitro minimum fungicidal concentration against Candida albicans.
Assay type: functional
Reported MFC values for a set of compounds
Value expressed in µg/mL; do not type the unit.

Any idea what its MFC is? The compound is Cc1cc(NC(=N)c2ccc3ccccc3n2)ccc1-c1ccc(-c2ccc(NC(=N)c3ccc4ccccc4n3)cc2C)o1
100

What value of measured MFC is listed for Cc1ccc(C(=N)Nc2ccc(-c3ccc(-c4ccc(NC(=N)c5ccc(C)cn5)cc4C)o3)c(C)c2)nc1 ?
10

Request the reported MFC associated with N=C(N)c1ccc(-c2ccc(-c3ccc(C(=N)N)cc3)o2)cc1
25

Sample Cc1cc(NC(=N)N)ccc1-c1ccc(-c2ccc(NC(=N)N)cc2C)o1.Cl.Cl — what was its MFC?
2.08

* * *

System: Candida albicans
Test: In vitro minimum fungicidal concentration against Candida albicans.
Type: functional
Catalogue of MFC values

Examples with their reported MFC follow.
- Cc1cc(NC(=N)c2ccccn2)cc(C)c1-c1ccc(-c2c(C)cc(NC(=N)c3ccccn3)cc2C)o1: > 100 µg/mL
- Cl.Cl.N=C(N)Nc1ccc(-c2ccc(-c3ccc(NC(=N)N)cc3Cl)o2)c(Cl)c1: 100 µg/mL
- Cl.Cl.N=C(Nc1ccc(-c2ccc(-c3ccc(NC(=N)c4ccccc4)cc3)o2)cc1)c1ccccc1: 50 µg/mL
- Cc1cc(NC(=N)c2ccccc2)ccc1-c1ccc(-c2ccc(NC(=N)c3ccccc3)cc2C)o1: 6.25 µg/mL

Proceeding to the next compound to report its MFC.
Find the recorded MFC belonging to Cc1cc(NC(=N)c2ccccn2)ccc1-c1ccc(-c2ccc(NC(=N)c3ccccn3)cc2C)o1 and report it.
10 µg/mL
